- assay.target: S1P1 (Homo sapiens (Human), UniProt P21453)
- Sequence (P21453 whole entry): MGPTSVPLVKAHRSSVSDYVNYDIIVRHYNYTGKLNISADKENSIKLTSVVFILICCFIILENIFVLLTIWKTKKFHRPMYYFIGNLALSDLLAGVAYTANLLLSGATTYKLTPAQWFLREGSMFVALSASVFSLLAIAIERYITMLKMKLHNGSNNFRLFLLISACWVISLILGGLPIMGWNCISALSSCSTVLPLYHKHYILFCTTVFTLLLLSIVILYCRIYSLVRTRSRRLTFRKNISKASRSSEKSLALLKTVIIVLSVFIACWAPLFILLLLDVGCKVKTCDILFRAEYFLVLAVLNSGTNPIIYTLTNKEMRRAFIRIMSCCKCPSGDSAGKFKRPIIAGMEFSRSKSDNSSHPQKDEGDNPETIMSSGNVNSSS
- measurement.notes: Receptor [35S] GTPγS Binding Assay, S1P1
- Format: biochemical
- details: ratio of GTPγS S1P3 EC50 to GTPγS S1P1 EC50; * and ** S1P3 value at detection limit
Structures can show the parent of a compound that is named as a salt.
Label class 1 when GTPγS S1P3/S1P1 < 1000; otherwise class 0.

Example entries begin here.
• O=C(NCCC(=O)N1CC(O)C1)C(O)c1ccc(-c2noc(-c3onc(-c4ccccc4)c3C(F)(F)F)n2)cc1 (racemic) [Example 93] = class 0
• O=C(NCc1ncc[nH]1)C(O)c1ccc(-c2noc(-c3onc(-c4ccccc4)c3C(F)(F)F)n2)cc1 (single isomer, unassigned) [Example 17] = class 0
• Cn1cccc1CNC(=O)C(O)c1ccc(-c2noc(-c3onc(-c4ccccc4)c3C(F)(F)F)n2)cc1 (racemic) [Example 132] = class 1
• O=C(NCCO)C(O)c1ccc(-c2noc(-c3onc(-c4ccccc4)c3C(F)(F)F)n2)cc1 (single isomer, unassigned) [Example 71] = class 0

Q: Take the compound O=C(NCC1CCCN1)C(O)c1ccc(-c2noc(-c3onc(-c4ccccc4)c3C(F)(F)F)n2)cc1 (racemic) [Example 88, TFA] and say whether its GTPγS S1P3/S1P1 is less than 1000.
Ans: class 1

====

- assay.target: S1P1 (Homo sapiens (Human))
- measurement.notes: Receptor [35S] GTPγS Binding Assay, S1P1
- details: membranes from S1P1/CHO cells; [35S]GTP
Counter-ions that a name gives are not always drawn.
# pEC50 values compiled below
pEC50 here: minus log base 10 of the concentration, concentration in moles per litre.

For orientation, consider the following solved cases.
• O=C(O)CCNC(=O)C(O)c1ccc(-c2noc(-c3onc(-c4ccccc4)c3C(F)(F)F)n2)cc1 (racemic) [Example 22] = 6.99
• O=C(NCC1CCCN1)C(O)c1ccc(-c2noc(-c3onc(-c4ccccc4)c3C(F)(F)F)n2)cc1 (racemic) [Example 88, TFA] = 6.99
• O=C(NC1CCS(=O)(=O)C1)C(O)c1ccc(-c2noc(-c3onc(-c4ccccc4)c3C(F)(F)F)n2)cc1 (stereo not drawn) [Example 31] = 7.92
• O=C(NCc1nc2ccccc2[nH]1)C(O)c1ccc(-c2noc(-c3onc(-c4ccccc4)c3C(F)(F)F)n2)cc1 (racemic) [Example 90] = 7.50

The recorded pEC50 for entry CC(C)(O)CNC(=O)CCNC(=O)C(O)c1ccc(-c2noc(-c3onc(-c4ccccc4)c3C(F)(F)F)n2)cc1 (single isomer, unassigned) [Example 6] equals 9.17

The recorded pEC50 for entry Cc1nnc(CNC(=O)C(O)c2ccc(-c3noc(-c4onc(-c5ccccc5)c4C(F)(F)F)n3)cc2)o1 (single isomer, unassigned) [Example 10] equals 8.33

====

# EC50 values compiled below
- assay.target: S1P1 (Homo sapiens (Human), UniProt P21453)
- measurement.notes: Receptor [35S] GTPγS Binding Assay, S1P1
- details: membranes from S1P1/CHO cells; [35S]GTP
Only the number, expressed in nM, is required.

For orientation, consider the following solved cases.
- CCNC(=O)C(O)c1ccc(-c2noc(-c3noc(-c4ccccc4)c3C(F)(F)F)n2)cc1 (racemic): 17.4
- O=C(NCc1ncc[nH]1)C(O)c1ccc(-c2noc(-c3onc(-c4ccccc4)c3C(F)(F)F)n2)cc1 (single isomer, unassigned): 6.7

Could you now consider this next compound?
The recorded EC50 for entry O=C(NCc1ccccn1)C(O)c1ccc(-c2noc(-c3cnn(-c4ccccc4)c3C(F)(F)F)n2)cc1 (racemic) equals 41.4
